# Test system: sodium channel
# PROCEDURE DETAILS: Guanidine influx assay (14C-guanidine radiotracer flux) in a known cell line that expresses a sodium channel
# Assay type: cell-based, human or rat
pIC50: −log10 of the molar value.
ASSAY ENDPOINT: pIC50

Identify the reported pIC50 for the following entry. CCCCCN1C(=O)C2(COc3cc4c(cc32)OCO4)c2c(C(=O)Nc3ccccn3)cccc21 (centres unmarked) [Example 29]
< 6.00

Tell me its pIC50 given CCCCCN1C(=O)C2(CC(O)c3cc4c(cc32)OCO4)c2ccccc21 (centres unmarked) [Example 26] as the entry.
< 6.00

Read off the recorded pIC50 for O=C(CN1C(=O)C2(COc3cc4c(cc32)OCO4)c2ccccc21)NCc1ccc(Cl)cc1 (centres unmarked) [Example 3]
6.00 to 7.00

State its pIC50: O=C1N(CCCNCC2CC2)c2ccccc2C12COc1cc3c(cc12)OCO3 (centres unmarked) [Example 15]
< 6.00

Tell me its pIC50 given CCCCCN1C(=O)C2(COc3cc4c(cc32)OCO4)c2c(-c3ccc(N(C)C)nc3)cccc21 (centres unmarked) [Example 4] as the entry.
6.00 to 7.00

Quick one: give measured pIC50 for CCCCCN1C(=O)C2(CC(OC)c3cc4c(cc32)OCO4)c2ccccc21 (centres unmarked) [Example 27]
< 6.00

Name the recorded pIC50 of the compound listed here: CCCCCN1C(=O)C2(COc3cc(Nc4ccccc4)ccc32)c2ccccc21 (centres unmarked) [Example 33]
< 6.00

Supply measured pIC50 of O=C(NCCN1C(=O)C2(COc3cc4c(cc32)OCO4)c2ccccc21)c1ccccc1OC(F)(F)F (centres unmarked) [Example 59] in your reply.
6.00 to 7.00

Tell me pIC50 reported for CCCCCN1C(=O)C2(COc3cc4c(cc32)OCO4)c2c(Nc3ccc(OC)nc3)cccc21 (centres unmarked) [Example 5]
6.00 to 7.00

Complete the entry with pIC50 for CCCCCN1C(=O)C2(COc3ccc(-c4cccnc4)cc32)c2ccccc21 (centres unmarked) [Example 48]
6.00 to 7.00

Please supply the value of reported pIC50 for the item CCCCCN1C(=O)C2(COc3ccc(Oc4ccccc4)cc32)c2ccccc21 (centres unmarked) [Example 41]
< 6.00

Note pIC50 for the compound shown: O=C(O)c1ccccc1CN1C(=O)C2(COc3cc4c(cc32)OCO4)c2ccccc21 (centres unmarked) [Example 6]
< 6.00

Identify the reported pIC50 for the following entry. O=C(NCCc1cccc(Cl)c1)c1cccc(CN2C(=O)C3(COc4cc5c(cc43)OCO5)c3ccccc32)c1 (centres unmarked) [Example 9]
6.00 to 7.00

Retrieve pIC50 measured for CC(C)(C)OC(=O)N1CCCC(c2ccc3c(c2)C2(CO3)C(=O)Nc3ccccc32)C1 (centres unmarked) [Example 55] and print it.
< 6.00

Find the measured pIC50 of CCCCCN1C(=O)C2(COc3ccc(-c4cncnc4)cc32)c2ccccc21 (centres unmarked) [Example 49] and report it.
6.00 to 7.00

Provide pIC50 value for the following compound: O=C1N(CCCO)c2ccccc2C12COc1cc3c(cc12)OCO3 (centres unmarked) [Example 13]
7.00 to 8.00

Give the measured pIC50 for CCCCCN1C(=O)C2(CCC(=O)c3cc4c(cc32)OCO4)c2ccccc21 (centres unmarked) [Example 22]
8.00 to 9.00
